These data points were gathered from ChEMBL document CHEMBL1201862.

- Test system: DMS-273
- Method Description: NCI tumour cell line growth inhibition, 48 h
Structures can show the parent of a compound that is named as a salt. Activity calls are given as the source filed them. Rule as the data show it: active = GI50 up to about 1.1 µM and inactive = higher.
The categories you may choose from are active, inactive

Some solved cases for reference:
- Compound: "O=C1OC(c2ccc(Cl)cc2)(c2ccc(Cl)cc2)c2c1ccc1ccccc21"
  Class Assignment: "inactive"
- Compound: "COc1ccc2cc3[n+](cc2c1OC)CCc1cc2c(cc1-3)OCO2 [BERBERINE SULFATE]"
  Class Assignment: "inactive"
- Compound: "CCOC1=C2N=C(Cc3ccc(F)cc3)NC2C(=O)c2ccccc21 (stereo unspecified)"
  Class Assignment: "inactive"
- Compound: "CCc1ccc(/C=C\\c2cc(OC)c(OC)c(OC)c2)cc1"
  Class Assignment: "active"
- Compound: "NC1(C(=O)O)CCc2ccc(N(CCCl)CCCl)cc2C1 (stereo unspecified)"
  Class Assignment: "inactive"

Data request: Per the assay record, what outcome was assigned to N#CC(NNC(=O)Cc1ccccc1)c1ccccc1O (stereo unspecified) ?
Data returned: inactive
